Cited source for all entries: patent US12655116B2

- Tested on: VERPE
- Protocol Summary: Post-emergence herbicidal action against VERPE
- Type: in vivo, Veronica persica
- Test Context: Veronica persica, 504 h, 20 g/ha
Measurement Type: pest or weed control at 20 g/ha (%)
Supply the numeric figure in %, leaving out any unit text.

Prompt: Missing value: pest or weed control at 20 g/ha, VERPE, entry CCn1nnnc1NC(=O)c1ccc(C(F)F)c(C(=O)NC)c1Cl [Example 2-147] . Fill in?
Response: 80

Prompt: And CCCn1nnnc1NC(=O)c1ccc(C(F)(F)F)c(C(N)=O)c1Cl [Example 3-338] ?
Response: 90

Prompt: And Cc1c(C(=O)Nc2nnnn2C)ccc(C(F)(F)F)c1C(=O)NC(C)C [Example 1-33] ?
Response: 80

Prompt: And CCNC(=O)c1c(C(F)(F)C(F)(F)F)ccc(C(=O)Nc2nnnn2C)c1Cl [Example 1-166] ?
Response: 90

Prompt: And CCCNC(=O)c1c(C(F)F)ccc(C(=O)Nc2nnnn2CC)c1C [Example 2-344] ?
Response: 80

Prompt: And CNC(=O)c1c(C(F)(F)C(F)(F)F)ccc(C(=O)Nc2nnnn2C)c1Cl [Example 1-165] ?
Response: 80

Prompt: And CNC(=O)c1c(C(F)(F)F)ccc(C(=O)Nc2nnnn2C)c1Cl [Example 1-129] ?
Response: 80

Prompt: And CCNC(=O)c1c(Br)ccc(C(=O)Nc2nnnn2C)c1Cl [Example 1-178] ?
Response: 80

Prompt: And CCNC(=O)c1c(C(F)F)ccc(C(=O)Nc2nnnn2C)c1SC [Example 1-88] ?
Response: 90
